Study System: KYAT1 (Homo sapiens)
Sequence (Q16773 whole entry): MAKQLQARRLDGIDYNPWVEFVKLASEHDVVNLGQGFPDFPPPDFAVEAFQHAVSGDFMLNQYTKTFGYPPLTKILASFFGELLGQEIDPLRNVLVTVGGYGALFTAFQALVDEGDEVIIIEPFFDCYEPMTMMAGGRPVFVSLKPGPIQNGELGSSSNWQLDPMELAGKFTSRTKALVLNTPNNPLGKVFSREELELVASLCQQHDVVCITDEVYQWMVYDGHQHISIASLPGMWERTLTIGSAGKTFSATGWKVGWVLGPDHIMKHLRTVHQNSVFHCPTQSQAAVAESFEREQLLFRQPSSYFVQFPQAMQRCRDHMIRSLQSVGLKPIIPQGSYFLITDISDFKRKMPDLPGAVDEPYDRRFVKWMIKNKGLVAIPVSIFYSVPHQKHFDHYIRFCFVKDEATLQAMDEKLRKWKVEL
Assay Protocol: spectrophotometric kynurenine aminotransferase assay at […] nm, Lineweaver-Burk
Format: biochemical
Recorded Endpoint: Ki

> print(dat)
                              entry.smiles  recorded.endpoint  value.measured
1  C[N+](C)(C)CCC[C@H](O)[C@H](N)C(=O)[O-]                 Ki            4 mM
